# Tested on: corn (Zea mays)
# assay remarks: Test C greenhouse herbicide test, pre- and postemergence
# Format: in vivo
# experimental conditions: Preemergence, 250 g ai/ha; scale 0 to 100, 0 no effect, 100 complete control
# Description: […]

molecule	study target	Corn plant response rating
CCCC(=O)Oc1c(C)nn(C)c(=O)c1-c1c(C)sc2ccc(C)cc12 [Compound 105]	corn (Zea mays)	25
CCc1oc2ccc(C)cc2c1-c1c(O)c(C)nn(C)c1=O [Compound 10]	corn (Zea mays)	5
Cc1ccc2ccccc2c1-c1c(O)c(I)nn(C)c1=O [Compound 29]	corn (Zea mays)	45
Cc1sc2ccccc2c1-c1c(O)c(Cl)nn(C)c1=O [Compound 89]	corn (Zea mays)	0
CCC(=O)Oc1c(C)nn(C)c(=O)c1-c1ccc(Br)c2ccccc12 [Compound 134]	corn (Zea mays)	5
CCCC(=O)Oc1c(C)nn(C)c(=O)c1-c1c(CC)sc2ccc(C)cc12 [Compound 107]	corn (Zea mays)	15
CC(=O)Oc1c(Cl)nn(C)c(=O)c1-c1c(C)sc2ccc(C(F)(F)F)cc12 [Compound 152]	corn (Zea mays)	15
Cc1ccc2ccccc2c1-c1c(O)c(C(F)(F)F)nn(C)c1=O [Compound 102]	corn (Zea mays)	30

---

Listed next: entries and their corresponding Chickweed plant response rating.
# System: chickweed (common chickweed, Stellaria media)
# assay remarks: Test C greenhouse herbicide test, postemergence
# Assay type: in vivo
# experimental conditions: postemergence, 62 g ai/ha; scale 0 to 100, 0 no effect, 100 complete control

sample smiles	study target	Chickweed plant response rating
Cc1nn(C)c(=O)c(-c2ccc(F)c3ccccc23)c1O	chickweed (common chickweed, Stellaria media)	95
Cc1ccc2ccccc2c1-c1c(O)c(Br)nn(C)c1=O	chickweed (common chickweed, Stellaria media)	100
CCC(=O)Oc1c(C)nn(C)c(=O)c1-c1ccc(F)c2ccccc12	chickweed (common chickweed, Stellaria media)	90
CCc1oc2ccc(C)cc2c1-c1c(O)c(C)nn(C)c1=O	chickweed (common chickweed, Stellaria media)	90
CCc1sc2ccc(C)cc2c1-c1c(O)c(C)nn(C)c1=O	chickweed (common chickweed, Stellaria media)	90
Cn1nc(Br)c(O)c(-c2cccc3ccccc23)c1=O	chickweed (common chickweed, Stellaria media)	98

---

Listed next: entries and their corresponding Plant response rating, Lambsquarters.
# Tested on: lambsquarters (Chenopodium album)
# assay remarks: Test E greenhouse herbicide test, pre- and postemergence
# Type: in vivo
# experimental conditions: 62 g ai/ha, Preemergence; scale 0 to 100 (0 no effect, 100 complete control)
recorded metric: Plant response rating, Lambsquarters

sample smiles	recorded metric	experimental result
Cc1nn(C)c(=O)c(-c2ccc(Br)c3ccccc23)c1O	Plant response rating, Lambsquarters	100
Cc1nn(C)c(=O)c(-c2ccc(F)c3ccccc23)c1O	Plant response rating, Lambsquarters	100
Cc1cc(C)c2sc(C)c(-c3c(O)c(C)nn(C)c3=O)c2c1	Plant response rating, Lambsquarters	98
Cc1cc2ccccc2c(-c2c(O)c(C)nn(C)c2=O)c1C	Plant response rating, Lambsquarters	100
COC(=O)Oc1c(C)nn(C)c(=O)c1-c1c(C)sc2ccc(C)cc12	Plant response rating, Lambsquarters	98
Cn1nc(Br)c(O)c(-c2cccc3ccccc23)c1=O	Plant response rating, Lambsquarters	95
Cc1ccc2sc(Br)c(-c3c(O)c(C)nn(C)c3=O)c2c1	Plant response rating, Lambsquarters	100
